Target: Polyunsaturated fatty acid 5-lipoxygenase (Homo sapiens)
Test: Inhibition of recombinant human 5-LO expressed in Escherichia coli BL21 (DE3) using arachidonic acid as substrate assessed as residual activity preincubated for 10 mins followed by CaCl2 and substrate addition measured after 10 mins by RP-HPLC analysis
Quick rule: Activity of at least 90% means True, below that means False.

Solved cases below.
• Cc1ccc(S(=O)(=O)N(Cc2ccc3ccccc3c2)c2ccc(C(=O)O)cc2)cc1 = True
• COc1cccc(CN(c2ccc(C(=O)O)cc2)S(=O)(=O)c2ccc(-c3ccccc3)cc2)c1 = False
• CCCCCCN(c1ccc(C(=O)O)cc1)S(=O)(=O)c1ccc(-c2ccccc2)cc1 = True

Exam item: Decide: is the reported value of Activity for O=C(O)c1ccc(N(Cc2ccc3ccccc3c2)C(=O)c2ccc(-c3ccccc3)cc2)cc1 equal to or greater than 90%?
Marked response: False
